src = ChEMBL document CHEMBL3301472

Test: MMV: MTT Cytotoxicity Assay Day 3 pi, U87-CD4-CCR5 cells, % cell death @ 5mM compound
Assay type: toxicity, cell-based
Settings: human, u87-cd4-ccr5, 5000 µM
Would you please tag the item Condition met when its % Cell Death is 20 or above, and Condition not met when it is below?

Answered cases to consult:
compound	group_label
COc1ccc2c(c1)C1(Nc3ccccc3-c3nc4ccccc4n31)C(=O)N2 (stereo unspecified)	Condition not met
COc1ccccc1CNC(=O)CCn1c(=O)[nH]c2ccsc2c1=O	Condition met
CCOC(=O)C1=C(c2ccccc2)N=c2sc(=Cc3cc(C)n(-c4ccc(F)cc4)c3C)c(=O)n2C1c1cccc(OC)c1OC (stereo unspecified)	Condition not met
CCOc1ccc(Nc2ccnc3cc(Cl)ccc23)cc1	Condition met
COCCN(C(=O)Cc1cccs1)C(C(=O)NCc1ccc(OC)cc1)c1ccc(C(C)C)cc1 (stereo unspecified)	Condition not met

Would you kindly look at the next entry?
**Query** Please tell me: is the compound O=C(Nc1ccc(N2CCCCC2)c(Cl)c1)c1ccc(Br)o1 at or over 20 in terms of % Cell Death?
**Result** Condition met

----------
Test: MMV: MTT Cytotoxicity Assay Day 7 pi of Assay #11 (NO washout), U87-CD4-CXCR4 cells, % cell death @ 5mM compound
Type: toxicity, cell-based
Settings: human, u87-cd4-cxcr4, 5000 µM
measured_quantity: % Cell Death
Just the number, please, no unit attached.

**Query** Could you share which % Cell Death value was measured for Cc1cc(C=C2SC(=Nc3ccccc3)N(C3CCCC3)C2=O)c(C)n1-c1ccc(Cl)cc1 ?
**Result** 90

**Query** Need % Cell Death of CC(C)(C)c1ccc(C(=O)Nc2c3c(nn2-c2cccc(Cl)c2)CSC3)cc1 , thanks.
**Result** 1

----------
Tested on: Human immunodeficiency virus 1
Experiment: MMV: HIV CXCR4-tropic env NL4-3 pseudovirus assay produces luciferase signal in lieu of replicating viral particles Day 3 pi, U87-CD4-CXCR4, % inhibition at 5 mM compound
Format: functional
Design: dose or concentration left out as unconfirmed
Conditions: Human immunodeficiency virus 1, NL4-3, U87.CD4.CXCR4, 72 h
measured_quantity: inhibition (%)
# value in %; strip the unit string

**Query** What inhibition value was documented for this compound, COc1ccc(Nc2nc(N/N=C/c3ccc(O)cc3)nc(Nc3ccc([N+](=O)[O-])cc3)n2)cc1 ?
**Result** 7

**Query** Give its inhibition value. Item: CN(C)CCNc1cc(-c2ccccc2)nc2ccccc12
**Result** 5

**Query** // query inhibition value for entry CCCCc1c(CCC)c(=N)c2ccccc2n1C.I
**Result** 7

----------
Experiment: MMV: MTT Cytotoxicity Assay Day 7 pi of Assay #7 (compound washed out Day 1 pi), U87-CD4-CXCR4 cells, % cell death @ 5mM compound
Type: toxicity, cell-based
Conditions: human, u87-cd4-cxcr4, 5000 µM
measured_quantity: % Cell Death
Reply briefly: the number, and no unit.

Take a look at these entries with their results.
compound	% Cell Death
COc1cc(C(=O)Nc2nc3c(cc4c5c(cccc53)CC4)s2)cc(OC)c1OC	68
COc1ccc2nc(N)nc(C)c2c1	-3
O=C(Nc1ccc(F)c(Cl)c1)Nc1ccc(Cl)c(Cl)c1	-9
CC(NCc1ccccc1)c1cc(Cl)ccc1O (stereo unspecified)	-15
CCOC(=O)c1c(C)n(-c2ccccc2)c2ccc(OC(=O)c3cc(OC)c(OC)c(OC)c3)cc12	2

Switching to the query record.
**Query** Report % Cell Death for Clc1ccc2[nH]c3c(NCCCN4CCOCC4)ncnc3c2c1 please.
**Result** 91

----------
Assay: MMV: MTT Cytotoxicity Assay Day 7 pi of Assay #7 (compound washed out Day 1 pi), U87-CD4-CXCR4 cells, % cell death @ 5mM compound
Assay type: toxicity, cell-based
Conditions: human, u87-cd4-cxcr4, 5000 µM
measured_quantity: % Cell Death
// return a plain number; no unit text

compound	% Cell Death
Clc1ccc2c(N3CCCC3)ccnc2c1	1
Cc1ccc(S(=O)(=O)c2c(COC(=O)c3cccc(C)c3)c(-c3ccccc3)nn2C)cc1	22
CCOC(=O)C1=C(c2ccccc2)N=c2sc(=Cc3cc(C)n(-c4ccc(F)cc4)c3C)c(=O)n2C1c1cccc(OC)c1OC (stereo not given)	-3
O=C(NC1CCN(Cc2ccccc2)CC1)c1cc(-c2ccncc2)nc2ccc(Cl)cc12	8

We next turn to a different compound, shown below.
**Query** Please give the measured % Cell Death for this compound: COc1cccc(Cn2c(Oc3ccccc3)nc3c2c(=O)n(C)c(=O)n3C)c1
**Result** 3

----------
Assay: MMV: MTT Cytotoxicity Assay Day 3 pi, U87-CD4-CCR5 cells, % cell death @ 5mM compound
Assay type: toxicity, cell-based
Details: human, u87-cd4-ccr5, 5000 µM
With a cut-off of 20, any % Cell Death strictly below it is called MET; any % Cell Death meeting it or above is called NOT MET.

// known answers, use as guide
compound	group_label
O=C(c1ccccc1F)N(Cc1ccc(Cl)cc1)c1ccccn1	NOT MET
COc1ccc(CCN2CCC(CN(C)Cc3cnn(-c4ccccc4)c3)CC2)cc1	NOT MET
O=C(NC1CCN(Cc2ccccc2)CC1)c1cc(C(=O)NC2CCN(Cc3ccccc3)CC2)cc(C(=O)NC2CCN(Cc3ccccc3)CC2)c1	MET
COc1ccc(CN2CCCC(C(=O)c3ccc(C(F)(F)F)cc3)C2)c(O)c1 (configuration not stated)	NOT MET
OC(Cn1nnc2ccccc21)Cn1c2ccc(Br)cc2c2cc(Br)ccc21 (configuration not stated)	MET

**Query** Does this compound meet the criterion % Cell Death < 20? COc1ccc(C=C2SC(=N)N(c3ccccc3OC)C2=O)cc1
**Result** NOT MET

**Query** Please let me know if CCN1CCN(Cc2ccc(NC(=O)c3cc4ccc5cccnc5c4[nH]3)cc2)CC1 shows % Cell Death below 20.
**Result** MET

**Query** Hello, is % Cell Death of the following compound strictly smaller than 20? Cn1c(=O)c2cc(C(=O)NCCCN3CCCCCC3)sc2c2ccccc21
**Result** MET

**Query** I wonder whether COc1cccc(C=Cc2nc(=O)c3ccccc3o2)c1OC has % Cell Death below 20. Can you tell?
**Result** NOT MET

**Query** Criterion: % Cell Death strictly below 20. Is it met by COCCn1c(C)nc2ccccc2c1=O ?
**Result** NOT MET

**Query** Is the reported % Cell Death for COc1ccc(C(O)(CCC(C)C)C(CN2CCOCC2)c2ccc(Cl)cc2)cc1.Cl (configuration not stated) strictly below 20?
**Result** NOT MET

**Query** API: query returns whether the compound falls strictly under 20 in % Cell Death. Query: OC(CNC1CCCCC1)Cn1c2ccc(I)cc2c2cc(I)ccc21 (configuration not stated)
**Result** NOT MET

----------
Assay: MMV: MTT Cytotoxicity Assay Day 7 pi of Assay #7 (compound washed out Day 1 pi), U87-CD4-CXCR4 cells, % cell death @ 5mM compound
Assay type: toxicity, cell-based
Settings: human, u87-cd4-cxcr4, 5000 µM
measured_quantity: % Cell Death
Reply briefly: the number, and no unit.

Sample records with % Cell Death:
molecule	measured_quantity	recorded_result
CCOc1c(Cl)cc(CNCC(O)c2ccccc2)cc1OC (stereo unspecified)	% Cell Death	-17
CN(C)CCCNCc1ccc(-c2ccc(F)c(Cl)c2)o1.Cl	% Cell Death	-17
Cc1ccc(F)cc1NC(=O)c1cc(Cl)ccc1Nc1ccccc1	% Cell Death	-2
CCOc1cc(Cl)c(C(C)NC(=O)c2cccc(OC)c2)cc1OCC (stereo unspecified)	% Cell Death	16
Cc1cc(N2CCN(C3CCCC3)CC2)n2c(nc3ccccc32)c1C#N	% Cell Death	-24

**Query** I have this molecule here, CC1CCN(Cc2c(O)ccc3cc(-c4nc5ccccc5s4)c(=O)oc23)CC1 , and I need its recorded % Cell Death.
**Result** -13

**Query** Given the entry COc1ccc(C(=O)Nc2ccc(Cl)cc2C(=O)Nc2ccncc2)cc1 , report its measured % Cell Death.
**Result** -11

**Query** What does the record list as % Cell Death for COc1ccc(CN2CCCC(C(=O)c3ccc(C(F)(F)F)cc3)C2)c(O)c1 (stereo unspecified) ?
**Result** 97

**Query** Consider the molecule CCOc1ccc2nc(C)cc(Nc3ccc(Br)cc3)c2c1 and give its measured % Cell Death.
**Result** 72

**Query** Entry O=c1cc(NC2CCN(CCCc3ccccc3)CC2)c2cc(Cl)ccc2o1 : reported % Cell Death = ?
**Result** 37

**Query** What value of % Cell Death has been recorded for this entry: c1ccc(Cn2c(N=Nc3c(Nc4ccccc4)ccc4ccccc34)nc3ccccc32)cc1
**Result** 99

**Query** Given the entry COc1ccccc1CNC(=O)CCn1c(=O)[nH]c2ccccc2c1=O , report its measured % Cell Death.
**Result** -15

**Query** What value of measured % Cell Death is listed for COc1ccc(C2=C(c3ccc(OC)cc3)C3(c4ccccc4)C(=O)C2(c2ccccc2)C2C(=O)N(c4ccc(C)cc4)C(=O)C23)cc1 (stereo unspecified) ?
**Result** 13

**Query** Please report the recorded % Cell Death for FC(F)(F)c1cccc(Nc2nc3ccccc3nc2Nc2cccc(C(F)(F)F)c2)c1 .
**Result** 3

**Query** What value of % Cell Death has been recorded for this entry: Nc1ccc(-c2nc3cc(Oc4ccc(Oc5ccc6[nH]c(-c7ccc(N)cc7)nc6c5)cc4)ccc3[nH]2)cc1
**Result** 68
